Data provenance is patent US9533986B2.

Tgt: full length active recombinant SYK enzyme (Homo sapiens)
Construct: full length active recombinant SYK enzyme (Millipore, Calif.)
Protocol: Inhibition of Syk tyrosine phosphorylation activity (LANCE TR-FRET kinase assay)
Settings: 1 nM active SYK enzyme, 550 nM SYK-substrate, 100 μM ATP, 1 hour at room temperature
Method: The in vitro and in vivo human JAK/Syk activities of the inventive compounds can be determined by various procedures known in the art, such as a test for their ability to inhibit the activity of human plasma JAK/Syk. […] The IC50 value is the concentration of the compound required to provide 50% inhibition of human JAK/Syk proteolytic activity. […] SYK tyrosine phosphorylation activity is measured using the LANCE™ Technology developed by Perkin Elmer Life and Analytical Sciences (Boston, Mass.). […]
pIC50: −log10 of the molar value.

# Molecule, pIC50
measured = [
    ("N[C@H]1CCCC[C@H]1Nc1nc2c(c(Nc3cccc(-c4ncccn4)c3)n1)C(=O)NCC2 [Example 4]", "≥ 6.60"),
    ("N[C@H]1CCCC[C@H]1Nc1nc2c(c(Nc3cccc(-n4nccn4)c3)n1)C(=O)NCC2 [Example 6]", "≥ 7.00"),
    ("COc1ccc(Nc2nc(N[C@@H]3CCCC[C@@H]3N)nc3c2C(=O)NCC3)cc1C(F)(F)F [Example 7]", "< 6.60"),
    ("Cc1cccc(Nc2nc(N[C@@H]3CCCC[C@@H]3N)nc3c2C(=O)NCC3)c1 [Example 1]", "≥ 7.00"),
]
